Cited source: paper doi:10.1101/2020.07.28.225383v1

target: CMII (bovine cardiac myosin II, MYH7) (Bos taurus)
Sequence (Q9BE39 whole entry): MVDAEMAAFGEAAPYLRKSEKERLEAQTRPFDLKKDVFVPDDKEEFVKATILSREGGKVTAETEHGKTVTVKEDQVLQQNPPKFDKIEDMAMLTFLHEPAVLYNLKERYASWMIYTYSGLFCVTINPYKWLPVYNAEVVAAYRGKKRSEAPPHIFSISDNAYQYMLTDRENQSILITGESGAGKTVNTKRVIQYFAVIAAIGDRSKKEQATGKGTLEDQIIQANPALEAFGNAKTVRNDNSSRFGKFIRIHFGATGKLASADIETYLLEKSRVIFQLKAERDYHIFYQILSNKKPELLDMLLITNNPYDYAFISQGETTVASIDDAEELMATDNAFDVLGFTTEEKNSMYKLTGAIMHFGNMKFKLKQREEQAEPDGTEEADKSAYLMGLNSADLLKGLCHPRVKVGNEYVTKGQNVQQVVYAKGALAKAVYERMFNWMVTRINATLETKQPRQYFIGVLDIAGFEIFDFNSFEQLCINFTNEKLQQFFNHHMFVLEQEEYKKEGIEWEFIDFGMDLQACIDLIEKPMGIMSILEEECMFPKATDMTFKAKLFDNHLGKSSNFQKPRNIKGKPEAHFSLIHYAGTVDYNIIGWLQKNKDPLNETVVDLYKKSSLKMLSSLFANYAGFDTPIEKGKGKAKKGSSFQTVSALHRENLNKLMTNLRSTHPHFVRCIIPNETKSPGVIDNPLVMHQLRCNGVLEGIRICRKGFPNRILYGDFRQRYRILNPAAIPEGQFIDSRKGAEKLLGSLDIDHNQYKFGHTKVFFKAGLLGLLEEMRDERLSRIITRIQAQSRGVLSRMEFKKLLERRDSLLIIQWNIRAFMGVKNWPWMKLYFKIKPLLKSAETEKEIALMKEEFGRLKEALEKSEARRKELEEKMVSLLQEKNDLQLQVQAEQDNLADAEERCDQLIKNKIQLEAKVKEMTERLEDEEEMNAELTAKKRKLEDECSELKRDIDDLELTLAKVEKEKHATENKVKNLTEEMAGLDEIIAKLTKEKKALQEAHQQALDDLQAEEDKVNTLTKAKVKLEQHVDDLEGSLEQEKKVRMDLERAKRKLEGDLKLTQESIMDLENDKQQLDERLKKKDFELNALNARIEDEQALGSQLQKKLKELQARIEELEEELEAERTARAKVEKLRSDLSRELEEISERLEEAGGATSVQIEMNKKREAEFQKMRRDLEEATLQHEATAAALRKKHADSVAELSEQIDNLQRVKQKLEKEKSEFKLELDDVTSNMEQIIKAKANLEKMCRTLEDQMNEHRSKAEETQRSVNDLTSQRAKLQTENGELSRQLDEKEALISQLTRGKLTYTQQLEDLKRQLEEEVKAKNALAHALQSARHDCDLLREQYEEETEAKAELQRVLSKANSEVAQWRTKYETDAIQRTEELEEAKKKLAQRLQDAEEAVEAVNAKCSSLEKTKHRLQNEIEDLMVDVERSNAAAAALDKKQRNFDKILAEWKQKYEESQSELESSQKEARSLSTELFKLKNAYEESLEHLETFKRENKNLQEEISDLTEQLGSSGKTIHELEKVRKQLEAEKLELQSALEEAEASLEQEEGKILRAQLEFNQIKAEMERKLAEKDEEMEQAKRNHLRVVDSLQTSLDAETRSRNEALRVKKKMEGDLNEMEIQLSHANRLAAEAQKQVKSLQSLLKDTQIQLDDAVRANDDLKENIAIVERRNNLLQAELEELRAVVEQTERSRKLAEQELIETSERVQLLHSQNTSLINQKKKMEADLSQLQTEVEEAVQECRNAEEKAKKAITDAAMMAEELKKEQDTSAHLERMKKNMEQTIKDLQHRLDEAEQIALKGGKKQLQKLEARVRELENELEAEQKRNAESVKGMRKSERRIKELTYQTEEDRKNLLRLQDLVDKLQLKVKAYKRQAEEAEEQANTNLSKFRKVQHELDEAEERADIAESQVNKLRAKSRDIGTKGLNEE
testReadout: Ki (µM)

I = CC(=O)Nc1ccc(N2CC[C@@]3(O)C(=O)c4cc(C)ccc4N=C23)cc1
II = Cc1ccc2c(c1)C(=O)[C@]1(O)CCN(c3cnc4nc(C)oc4c3)C1=N2
III = Cc1ccc2c(c1)C(=O)[C@]1(O)CCN(c3ccccc3)C1=N2
Qu. Could you please order the items by Ki, going from the lowest number to the highest? # list labels per requested ordering
Ans. III, I, II
(III: 1.9 µM, I: 34 µM, II: 83 µM)

###

molecular target: SkMII (skeletal muscle myosin II); assay: NADH-linked ATPase assay, quadratic […] binding fit
testReadout: Ki (nM)

The following molecules have reported results that may help.
# molecule, assayedSystem, Ki / nM
data = [
    ("Cc1ccc2c(c1)C(=O)[C@]1(O)CCN(c3cnc4nc(C)oc4c3)C1=N2 [Skeletostatin 1]", "SkMII (skeletal muscle myosin II)", 480),
    ("Cc1ccc2c(c1)C(=O)[C@]1(O)CCN(c3ccccc3)C1=N2 [Blebbistatin]", "SkMII (skeletal muscle myosin II)", 280),
]

A = Cc1ccc2c(c1)C(=O)[C@]1(O)CCN(c3ccc(N4CCOCC4)cc3)C1=N2 [Skeletostatin 3]
B = CC(=O)Nc1ccc(N2CC[C@@]3(O)C(=O)c4cc(C)ccc4N=C23)cc1 [Skeletostatin 2]
Qu. Recorded Ki values differ for A and B ; which one is higher? # respond with the chosen item's label
Ans. A
